B1: PLK2 (parent)
chain: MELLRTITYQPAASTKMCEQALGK

- Variants of: B1
- protocol-text: protein stability index of a GFP-peptide fusion (GPS, HEK-293T) (PSI 1-6); higher = more stable;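 note: lentivirally expressed fusions sorted by FACS into six bins by GFP to DsRed ratio, PSI derived from sequencing read proportions per bin multiplied by bin number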
- setup-conditions: c terminus: a fixed tail appended
Given measured protein stability index, output criterion met if it is greater than or equal to 3 and criterion not met if not.

Exercise: Decide: is the reported value of protein stability index for `MILLRTITYQPAASTKMCEQALGK` equal to or greater than 3?
Key: criterion not met

Exercise: Decide: is the reported value of protein stability index for `MELLRTIFYQPAASTKMCEQALGK` equal to or greater than 3?
Key: criterion not met

Exercise: Decide: is the reported value of protein stability index for `MELLRTITYQPAACTKMCEQALGK` equal to or greater than 3?
Key: criterion not met

Exercise: Decide: is the reported value of protein stability index for `MELLRLITYQPAASTKMCEQALGK` equal to or greater than 3?
Key: criterion not met

Exercise: Decide: is the reported value of protein stability index for `MELLRTITYQPAASTKMCIQALGK` equal to or greater than 3?
Key: criterion not met

Exercise: Decide: is the reported value of protein stability index for `MELLRTITYQPAASTKMCTQALGK` equal to or greater than 3?
Key: criterion not met

Exercise: Decide: is the reported value of protein stability index for `MELLSTITYQPAASTKMCEQALGK` equal to or greater than 3?
Key: criterion not met

Exercise: Decide: is the reported value of protein stability index for `MEYLRTITYQPAASTKMCEQALGK` equal to or greater than 3?
Key: criterion not met

Exercise: Decide: is the reported value of protein stability index for `MELLRTITYQPAASTKMCEQILGK` equal to or greater than 3?
Key: criterion met

Exercise: Decide: is the reported value of protein stability index for `MELLRTITYQPAASTKICEQALGK` equal to or greater than 3?
Key: criterion not met

Exercise: Decide: is the reported value of protein stability index for `MELLRTITYQPAASTKMCEQAVGK` equal to or greater than 3?
Key: criterion not met

Exercise: Decide: is the reported value of protein stability index for `MELLRTITYQPAASTKMCEQALSK` equal to or greater than 3?
Key: criterion met

Exercise: Decide: is the reported value of protein stability index for `MELLRTITYQPIASTKMCEQALGK` equal to or greater than 3?
Key: criterion not met

Exercise: Decide: is the reported value of protein stability index for `GELLRTITYQPAASTKMCEQALGK` equal to or greater than 3?
Key: criterion met

Exercise: Decide: is the reported value of protein stability index for `MELLRTITYQPAASTMMCEQALGK` equal to or greater than 3?
Key: criterion not met

These data points were gathered from the supplement of paper PMC10567573.
